- Tested on: SF-295 CNS
- TEST_NAME: NCI-60 one-dose screen, 48 h
- CONDITIONS: 10 µM unless noted
The panel holds about 83,000 compounds, 20% with a hit somewhere; the sample as a whole holds those more often. Activity calls are given as the source filed them. How the source made its calls: active means growth percent below 10; inactive means the rest.
// classify into active, inactive

Use the examples below as a reference point.
# MOLECULE, CLASS
measured = [
    ("COc1cccc(-c2nn(-c3ccccc3)cc2-c2ccnc(NCCNS(=O)(=O)c3ccccc3)c2)c1", "inactive"),
    ("c1ccc(-c2nc(Nc3ccc(-c4nc5ccccc5[nH]4)cc3)nc(N3CCOCC3)n2)cc1", "active"),
]

Which outcome was assigned to CC(Cc1ccco1)C(=O)NC(N)=O (stereo unspecified) in this test?
inactive

Next record, please: Fc1ccc(NCc2nnc(-c3ccc(Cl)cc3)o2)cc1
inactive

Another: Cn1cc(-c2nc(-c3c[nH]c4ncccc34)cs2)c2cc(F)ccc21
inactive

Next molecule: Cn1cnc2c1c(=O)n(CCC(=O)Nc1ccc(F)cc1)c(=O)n2C
inactive

What do you have for COc1cc2c(cc1-c1c(C)noc1C)ncc1nc(C3CCC(F)(F)CC3)n([C@@H](C)COC(F)F)c12 ?
inactive

Next molecule up: CN1CCN(c2nc(-c3csc(-c4cccs4)n3)cc3ccccc23)CC1
inactive

Follow-up entry: Nc1ncnc2nc(Br)[nH]c12
inactive

Then what about the molecule Cn1nc(-c2ccccc2)c2c(-c3ccccc3)onc2c1=O ?
inactive

Try this molecule too: CCC(c1ccc(OC)cc1)C(CC)c1ccc(O)c(CN2CCCCC2)c1 (stereo unspecified)
inactive

---

// values below are reported growth
- Tested on: SNB-75 CNS
- TEST_NAME: NCI-60 one-dose screen, 48 h (100 = growth as untreated, 0 = no growth, -100 = all killed)
- CONDITIONS: 10 µM unless noted
About 83,000 compounds went through this panel and 20% of them were active in at least one assay; those are over-represented in the sample as a whole. The source made the active and inactive calls. Rule for the calls: active = growth percent below 10; inactive = the rest.

Worked cases, answers included:
# COMPOUND, growth
rows = [
    ("N#CC1=C(N)Oc2ccc3ccccc3c2C1c1ccccc1 (stereo not given)", "-16.3% (active)"),
    ("CC1(c2ccccc2)OC1C(=O)O (stereo not given)", "91.6% (inactive)"),
    ("Fc1cccc(-c2[nH]nc3nc(Nc4cccnc4)sc23)c1", "47.5% (inactive)"),
    ("c1ccc(-c2nc(Nc3ccc(-c4nc5ccccc5[nH]4)cc3)nc(N3CCOCC3)n2)cc1", "-89.6% (active)"),
    ("CCN(CC)CCCCCNc1cc(OC(=O)c2ccccc2)cc2cccnc12", "70.9% (inactive)"),
    ("O=C(N/N=C\\c1ccccc1O)C1CC1", "98.1% (inactive)"),
    ("COC(=O)[C@]12CC[C@@H](C)[C@H](C)[C@@H]1C1=CC[C@@H]3[C@@](C)(CC#N)C4=C(C[C@@]3(C)[C@]1(C)CC2)OC[C@]4(C)C=O", "19.3% (inactive)"),
    ("CCCCCC1CCCCN1C(=O)OCC (stereo not given)", "88.4% (inactive)"),
    ("Cc1csc(-c2ccc3c(c2)COC3(CCCN(C)C)c2ccc(F)cc2)c1 (stereo not given)", "32% (inactive)"),
]

// moving on: another record for growth
growth for CC[C@H](CC[C@@H](C)[C@H]1CC[C@H]2[C@@H]3/C(=C/c4cccnc4)C(=O)C4=CC(=O)CC[C@]4(C)[C@H]3CC[C@]12C)C(C)C ?
110% (inactive)

---

- Tested on: CAKI-1 renal
- TEST_NAME: NCI-60 one-dose screen, 48 h (100 = growth as untreated, 0 = no growth, -100 = all killed)
- CONDITIONS: 10 µM unless noted
This is part of a sample that, as a whole, favours compounds with a hit. Of some 83,000 tested, about 20% had one in any assay.
Items are presented alongside their recorded growth.
Answer in %, number only, no unit symbol.

Previously resolved entries follow.
# COMPOUND, UOM, growth
records = [
    ("COc1ccc(-c2c(-c3nc4ccc(N5CCOCC5)cc4[nH]3)[nH]c(C)c2C(C)=O)cc1", "%", 16.9),
    ("Cc1ccc(Sc2sc(-c3ccccc3)nc2[P+](c2ccccc2)(c2ccccc2)c2ccccc2)cc1", "%", -14.2),
    ("COC(=O)[C@]12CC[C@@H](C)[C@H](C)[C@@H]1C1=CC[C@@H]3[C@@]4(C)C[C@@H](OC(C)=O)[C@H](O)[C@@](C)(COC(C)=O)[C@@H]4[C@H](O)C[C@@]3(C)[C@]1(C)CC2", "%", -88.2),
    ("NC(Cc1ccc(O)cc1)C(=O)N/N=C/c1ccccc1O (configuration not stated)", "%", 107),
]

Using the record for Cc1ccc(S(=O)(=O)Nc2ccc(-c3cc(-c4cccc(F)c4)c(C#N)c(=O)[nH]3)cc2)cc1 , report its growth.
60.2

Further, for Cn1cnc2c1c(=O)n(CCC(=O)Nc1ccc(F)cc1)c(=O)n2C ?
93.7

---

- System: A549/ATCC NSCLC
- TEST_NAME: NCI-60 one-dose screen, 48 h
- CONDITIONS: 10 µM unless noted
This is part of a sample that, as a whole, favours compounds with a hit. Of some 83,000 tested, about 20% had one in any assay. Active and inactive are the calls of the source. How the source made its calls: active means growth percent below 10; inactive means the rest.
# valid calls are active, inactive; nothing else

# COMPOUND, CLASS
rows = [
    ("O=P(O)(c1ccccc1)c1ccccc1I", "inactive"),
    ("CC(CNc1nc(Nc2ccc(Cl)c(Cl)c2)nc(C(Cl)(Cl)Cl)n1)N(C)C (stereo not drawn)", "active"),
    ("Cn1cc(-c2nc(-c3c[nH]c4ncccc34)cs2)c2cc(Cl)ccc21", "inactive"),
]

Test call for this compound, please: CCCCC[C@H]1CC=C2C(=O)C=C[C@@H]2CC=CCCCC(=O)O[C@@H](CCCCC)CC=C2C(=O)C=C[C@@H]2CC=CCCCC(=O)O[C@@H](CCCCC)CC=C2C(=O)C=C[C@@H]2CC=CCCCC(=O)O1
active

Please do the same for Fc1ccc(Nc2ccc3c(OCCCN4CCOCC4)cccc3n2)cc1F as well.
inactive

Then Cn1cc(-c2csc(-c3cn(CCN)c4ccc(F)cc34)n2)c2cccnc21 ?
inactive

What do you get for COC(=O)[C@]12CC[C@@H](C)[C@H](C)[C@@H]1C1=CC[C@@H]3[C@@]4(C)C(c5ncon5)=C[C@@](C)(CO)C4=CC[C@@]3(C)[C@]1(C)CC2 ?
inactive

// next record Cc1ccc(-c2ccc(/C=C(\C#N)c3nc(-c4ccco4)cs3)o2)cc1
inactive

---

- System: ACHN renal
- TEST_NAME: NCI-60 one-dose screen, 48 h (100 = growth as untreated, 0 = no growth, -100 = all killed)
- CONDITIONS: 10 µM unless noted
Compounds without any hit were thinned out: in the full panel of roughly 83,000, 20% have a hit. Active and inactive are the calls of the source. Rule for the calls: active = growth percent below 10; inactive = the rest.
REPORTED_METRIC: growth

Consider the worked cases shown below.
# COMPOUND, OBSERVED_RESULT
data = [
    ("COc1ccc(C(=O)/C=C/c2cc(-c3cc(OC)c(OC)c(OC)c3)n[nH]2)cc1OC", "-86.2% (active)"),
    ("COc1ccc(-c2nc(Nc3ccc(-c4nc5ccccc5[nH]4)cc3)nc(N3CCOCC3)n2)cc1", "9% (active)"),
    ("Cc1cc2nc3c4cc([N+](=O)[O-])cc([N+](=O)[O-])c4n(CCN(C)C)c3nc2cc1C", "35.5% (inactive)"),
    ("Clc1ccccc1-c1nc(Nc2nc3ccccc3s2)nc(C(Cl)(Cl)Cl)n1", "6.55% (active)"),
    ("COc1cccc(-c2nn(-c3ccccc3)cc2-c2ccnc(NCCCO)c2)c1", "55.6% (inactive)"),
    ("Cn1cc(-c2csc(-c3cn(C(=O)OC(C)(C)C)c4ccc(Br)cc34)n2)c2cccnc21", "48.8% (inactive)"),
    ("COc1cccc2c1C(=O)c1c(O)c3c(c(O)c1C2=O)C[C@@](O)(C(=O)CO)C[C@@H]3OC1C[C@H](N)[C@H](O)[C@H](C)O1 (some centres undefined)", "-11% (active)"),
    ("Nc1ccc(Br)cn1", "109% (inactive)"),
]

Proceed to the following item.
Endpoint output: growth of N#Cc1cnc2cc(OC[C@@H](O)CO)c(NC(=O)CC3CSSC3)cc2c1Nc1ccc(OCc2cccc(F)c2)c(Cl)c1 . Value?
3.6% (active)

---

- Tested on: UACC-257 melanoma
- TEST_NAME: NCI-60 one-dose screen, 48 h (100 = growth as untreated, 0 = no growth, -100 = all killed)
- CONDITIONS: 10 µM unless noted
This is part of a sample that, as a whole, favours compounds with a hit. Of some 83,000 tested, about 20% had one in any assay.
Entries and their measured growth follow.
Answer format: numeric, % implied, no suffix.

# COMPOUND, growth (%)
rows = [
    ("CCCCCCCN(CCCCCCC)C(=N)c1ccnc2ccccc12", -69.4),
    ("C=C(C)[C@@H]1CC[C@]2(C(=O)N3CCCNCC3)CC[C@]3(C)[C@H](CC[C@@H]4[C@@]5(C)CCC(=O)C(C)(C)[C@@H]5CC[C@]43C)[C@@H]12", 98.4),
    ("CCSc1ncnc2c1ncn2C1OC(CO)C(O)C1O (centres undefined)", 59.6),
]

Query compound follows.
Which growth is reported with UACC-257 melanoma for this entry: CC(=O)O[C@H]1CC[C@]2(C)[C@H]3C(=O)C=C4[C@@H]5C[C@](C)(C(=O)N6CCCNCC6)CC[C@]5(C)CC[C@@]4(C)[C@]3(C)CC[C@H]2C1(C)C ?
75.7
